As shown below, each of these molecules has a reported melting point value.

substance_smiles	endpoint_result
O=C(OCCN1CCN(c2ccc([N+](=O)[O-])cc2)CC1)c1ccccc1Br	185 to 187 °C

query: Return reported melting point; argument: O=C(Cc1ccccc1)OCCN1CCN(c2ccc([N+](=O)[O-])cc2)CC1
result: 178 to 180 °C

query: Return reported melting point; argument: O=C(OCCN1CCN(c2ccc([N+](=O)[O-])cc2)CC1)c1cccnc1
result: 168 to 170 °C

query: Return reported melting point; argument: O=C(OCCN1CCN(c2ccc([N+](=O)[O-])cc2)CC1)c1ccc([N+](=O)[O-])cc1
result: 172 to 174 °C

---

property_name: melting point

Would you please look over these solved cases?
substance_smiles	endpoint_result
COc1ccc(C=O)c(C(=O)OCCN2CCN(c3ccc([N+](=O)[O-])cc3)CC2)c1OC	176 to 178 °C
O=C(OCCN1CCN(c2ccc([N+](=O)[O-])cc2)CC1)c1ccc([N+](=O)[O-])cc1Cl	203 to 205 °C
O=C(OCCN1CCN(c2ccc([N+](=O)[O-])cc2)CC1)c1ccccc1	176 to 178 °C
O=C(OCCN1CCN(c2ccc([N+](=O)[O-])cc2)CC1)c1cc2ccccc2[nH]1	192 to 194 °C
O=C(OCCN1CCN(c2ccc([N+](=O)[O-])cc2)CC1)c1cccc([N+](=O)[O-])c1	181 to 183 °C
O=C(OCCN1CCN(c2ccc([N+](=O)[O-])cc2)CC1)c1ccc(Cl)cc1Cl	196 to 198 °C

query: Return reported melting point; argument: COc1ccc(CC(=O)OCCN2CCN(c3ccc([N+](=O)[O-])cc3)CC2)cc1
result: 207 to 209 °C

query: Return reported melting point; argument: O=C(C=Cc1ccccc1)OCCN1CCN(c2ccc([N+](=O)[O-])cc2)CC1
result: 185 to 187 °C

---

# tested_target: mushroom tyrosinase (Agaricus bisporus, UniProt C7FF04)
# Sequence (C7FF04 1-392): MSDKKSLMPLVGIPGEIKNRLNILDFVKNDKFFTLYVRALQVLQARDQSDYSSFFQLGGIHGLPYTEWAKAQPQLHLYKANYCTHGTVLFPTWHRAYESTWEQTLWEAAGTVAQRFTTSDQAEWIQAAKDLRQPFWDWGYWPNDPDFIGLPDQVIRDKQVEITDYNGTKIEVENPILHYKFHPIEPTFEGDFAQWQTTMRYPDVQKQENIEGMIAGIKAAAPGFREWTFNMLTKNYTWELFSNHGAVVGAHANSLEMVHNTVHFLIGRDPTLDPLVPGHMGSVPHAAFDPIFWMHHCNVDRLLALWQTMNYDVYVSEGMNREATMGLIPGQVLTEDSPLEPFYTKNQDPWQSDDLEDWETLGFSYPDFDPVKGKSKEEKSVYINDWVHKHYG
# test_description: Mushroom tyrosinase inhibitory assay with L-dopa as substrate;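 further: enzyme activity followed as absorbance change at 475 nm in phosphate buffer pH 6.8, monitored continuously, IC50 derived from percent inhibition dose–response curves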
# Assay type: biochemical
# assay_conditions: 100 μM; L-dopa substrate; ± SD; read-out: % Inhibition at 100 μM
The class of a record is decided solely by its measured inhibition at 100 µM; consult low bin = under 30%, mid bin = from 30% up to 40%, high bin = 40% and over

Please review the following examples before continuing.
compound	qualitative_label
O=C(OCCN1CCN(c2ccc([N+](=O)[O-])cc2)CC1)c1ccc([N+](=O)[O-])cc1Cl [Compound 4f]	mid bin
O=C(OCCN1CCN(c2ccc([N+](=O)[O-])cc2)CC1)c1cccc([N+](=O)[O-])c1 [Compound 4e]	low bin
O=C(C=Cc1ccccc1)OCCN1CCN(c2ccc([N+](=O)[O-])cc2)CC1 [Compound 4j]	low bin
O=C(OCCN1CCN(c2ccc([N+](=O)[O-])cc2)CC1)c1ccccc1Br [Compound 4b]	low bin
O=C(OCCN1CCN(c2ccc([N+](=O)[O-])cc2)CC1)c1ccc([N+](=O)[O-])cc1 [Compound 4d]	low bin
COc1ccc(C=O)c(C(=O)OCCN2CCN(c3ccc([N+](=O)[O-])cc3)CC2)c1OC [Compound 4h]	low bin

query: In plain terms, what class is O=C(OCCN1CCN(c2ccc([N+](=O)[O-])cc2)CC1)c1cc2ccccc2[nH]1 [Compound 4l] ?
result: high bin

query: In plain terms, what class is O=C(OCCN1CCN(c2ccc([N+](=O)[O-])cc2)CC1)c1ccc([N+](=O)[O-])o1 [Compound 4m] ?
result: high bin

query: In plain terms, what class is O=C(OCCN1CCN(c2ccc([N+](=O)[O-])cc2)CC1)c1ccccc1 [Compound 4a] ?
result: mid bin

query: In plain terms, what class is O=C(OCCN1CCN(c2ccc([N+](=O)[O-])cc2)CC1)c1ccc(Cl)cc1Cl [Compound 4c] ?
result: low bin

query: In plain terms, what class is O=C(OCCN1CCN(c2ccc([N+](=O)[O-])cc2)CC1)c1cccnc1 [Compound 4k] ?
result: high bin

The measurements presented in this section are drawn from paper PMC10998383.
